- EXPERIMENT: Human HepG2 cell viability assay in 384 well format
- Format: toxicity, cell-based
- Design: dose 125 nL, time 70.5 hour; concentration not given beside the values
- TEST_SETTINGS: HepG2 cells, read-out: Inhibition
OUTCOME_MEASURE: cytotoxicity at 70.5 h (%)
Supply the numeric figure in %, leaving out any unit text.

Example entries and their recorded answers appear below.
> print(dat)
                                   compound         outcome.measure  units.symbol  recorded.value
1  CNC(=O)c1ccc(CN(C)c2ccc(C(F)(F)F)cn2)cc1  cytotoxicity at 70.5 h             %            6.65
2  COCC(O)CNc1cncc(Br)c1 (stereo unspecified)  cytotoxicity at 70.5 h             %            -2.5
3        Cc1cc(-n2nc(C3CC3)nc2-c2csnn2)ccn1  cytotoxicity at 70.5 h             %           -10.1
4    C[C@@H]1CN(c2nc(N)nc3c2CCC3)C[C@]1(C)O  cytotoxicity at 70.5 h             %            1.03
5  Cc1cccc(N2CCC3(CCCN3Cc3c(C)nn(C)c3C)CC2)n1  cytotoxicity at 70.5 h             %            -3.1

# context switch: different compound, same cytotoxicity at 70.5 h
Data request, read-out cytotoxicity at 70.5 h, for `CN1CCc2c(C#N)c(NCCN3CCOCC3)n3cnnc3c2C1`
-3.13

The values you see were collected from ChEMBL document CHEMBL3507680.
